The reported measurements were obtained from patent US20110318339A1.

Listing of entries alongside the reported ELISA absorbance at 450 nm.
biological target: T1, recombinant human DLL4 (Cat# 1506-D4/CF, R&D Systems) (human, UniProt Q9NR61 27-529); experiment: ELISA, DLL4 coated, Fab 0.74 nM
T1 construct: Bought protein; also called hDLL4; rHuman DLL4
Write the answer as a number in A450, unit excluded.

Worked cases, answers included:
{"binder": "Fab VH1-46_IGHD6-6*01_IGHJ1*01 S102A/S103P/S104F/H111F I51A/N52L/S54T/G56H & L6_IGKJ1*01 S28N/S30D/S31H S52L/A55S (Fab, V domains shown, Fab made in E. coli: VH on CH1 with His6 and Flag tags (Plasmid A), VL on kappa CL (Plasmid C); also called H: APFF ALTH & L: NDH LS) VH: QVQLVQSGAEVKKPGASVKVSCKASGYTFTSYYMHWVRQAPGQGLEWMGIALPTGHSTSYAQKFQGRVTMTRDTSTSTVYMELSSLRSEDTAVYYCAREEYAPFSAEYFQFWGQGTLVTVSS VL: EIVLTQSPATLSLSPGERATLSCRASQNVDHYLAWYQQKPGQAPRLLIYDALNRSTGIPARFSGSGSGTDFTLTISSLEPEDFAVYYCQQRSNWPPWTFGQGTKVEIKR", "ELISA absorbance at 450 nm / A450": 0.046}
{"binder": "Fab VH1-46_IGHD6-6*01_IGHJ1*01 S102A/S103P/S104F/H111F I51V/N52L/S54T/G56H & L6_IGKJ1*01 S28N/S30D/S31H S52L/A55G (Fab, V domains shown, Fab made in E. coli: VH on CH1 with His6 and Flag tags (Plasmid A), VL on kappa CL (Plasmid C); also called H: APFF VLTH & L: NDH LG) VH: QVQLVQSGAEVKKPGASVKVSCKASGYTFTSYYMHWVRQAPGQGLEWMGIVLPTGHSTSYAQKFQGRVTMTRDTSTSTVYMELSSLRSEDTAVYYCAREEYAPFSAEYFQFWGQGTLVTVSS VL: EIVLTQSPATLSLSPGERATLSCRASQNVDHYLAWYQQKPGQAPRLLIYDALNRGTGIPARFSGSGSGTDFTLTISSLEPEDFAVYYCQQRSNWPPWTFGQGTKVEIKR", "ELISA absorbance at 450 nm / A450": 0.397}

Look at this binder and give its reported ELISA absorbance at 450 nm. Fab VH5-51_IGHD5-18*01>3_IGHJ4*01 G100K/G104T & V3-4_IGLJ1*01 (Fab, V domains shown, Fab made in E. coli: VH on CH1 with His6 and Flag tags (Plasmid A), VL on lambda CL (Plasmid E); also called H: KT & L: wt) VH: EVQLVQSGAEVKKPGESLKISCKGSGYSFTSYWIGWVRQMPGKGLEWMGIIYPGDSDTRYSPSFQGQVTISADKSISTAYLQWSSLKASDTAMYYCARRKYSYTYDYFDYWGQGTLVTVSS VL: QTVVTQEPSFSVSPGGTVTLTCGLSSGSVSTSYYPSWYQQTPGQAPRTLIYSTNTRSSGVPDRFSGSILGNKAALTITGAQADDESDYYCVLYMGSGISYVFGTGTKVTVL 0.019
